B1: Azoarcus group I ribozyme (parent)
chain: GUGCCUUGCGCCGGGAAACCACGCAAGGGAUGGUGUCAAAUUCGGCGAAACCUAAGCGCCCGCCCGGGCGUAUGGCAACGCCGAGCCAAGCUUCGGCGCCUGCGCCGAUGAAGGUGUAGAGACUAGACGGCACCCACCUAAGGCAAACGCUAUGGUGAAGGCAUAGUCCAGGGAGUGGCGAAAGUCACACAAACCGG

- Variants of: B1
- ASSAY METHOD TEXT: reverse-splicing fitness (ratio to wild type); higher = more active; in vitro selection; Mg2+ level not given
What reverse-splicing fitness was measured for each of the following?

So what's the measured reverse-splicing fitness for this one? C82A A111G A120U A145U C150A C169A U176C 0.00213

Record request: reverse-splicing fitness value, item C82A A111C A120U A145G C150U U176G 0.00369

I would be grateful if you could share the reported reverse-splicing fitness for C82G A111G A120G A145G C150G C169G U176A . 0.0111

So what's the measured reverse-splicing fitness for this one? C82A A111U A120C C150U C169G U176C 0.0205

Fill in the blank: the reported reverse-splicing fitness of C82U A111C A120C A145G C150G C169A is ____. 0.0079

Give its reverse-splicing fitness value. Item: C82U A120U A145U C150U C169U U176G 0.00217

Consider the variant C82A A120U A145C C150A C169U U176A and give its measured reverse-splicing fitness. 0.00259

Request the reported reverse-splicing fitness associated with C82G A111G C150G C169U 0.0107

Give its reverse-splicing fitness value. Item: C82U A111C A120U A145C C169A U176G 0.0017

Would you kindly share the measured reverse-splicing fitness for A111C A120G A145U C150U C169U U176C ? 0.0353

Recorded reverse-splicing fitness of C82G A111G A145G C150G C169U U176C , please. 0.0131
